Source listed as PubChem BioAssay AID248.

# Tested on: L1210 leukemia ip in BDF1 mice, survival T/C
# measurement.notes: NCI In Vivo Anticancer Drug Screen. Data for tumor model L1210 Leukemia (intraperitoneal) in B6D2F1 (BDF1) mice
# measurement.setup: endpoint: mean survival time; dose: 400.0 mg/kg/injection; schedule: Q04DX002 (ip); vehicle: Klucel (hydroxypropylcellulose) (HPC); higher = longer survival
Toxic doses and inconclusive results are not listed.

| molecule | T/C |
| --- | --- |
| COC1OC2COC(c3ccccc3)OC2C(O)C1OC(N)=S (configuration not stated) | 96 % of control |
| CC1(C)CCC2=C(C1)Nc1ccc(Cl)cc1NC2c1ccc([N+](=O)[O-])cc1 (configuration not stated) | 98 % of control |
| Cc1ccc(C(=O)CC(Sc2ccccc2N)c2cccc([N+](=O)[O-])c2)cc1 (configuration not stated) | 95 % of control |
| CC(C)(C)N1C=C(c2ccccc2)N=CC1(c1ccccc1)C(C)(C)C (configuration not stated) | 103 % of control |
| Cc1cc(N(CCCl)CCCl)ccc1C=Nc1ccc2c(c1)nc(C)n2C | 97 % of control |
| CC(C)CC(=O)CC(O)C(Cl)(Cl)Cl (configuration not stated) | 101 % of control |
| O=C(O)CCC(NC(=O)/C=C/c1ccc([N+](=O)[O-])cc1)C(=O)O (configuration not stated) | 91 % of control |
| COc1ccc(COC(=O)Nc2cc(OC)ccc2OC)cc1 | 107 % of control |
| Cc1ccc(S(=O)(=O)OCC2C(COS(=O)(=O)c3ccc(C)cc3)C3C4C5C2C2C3C4C52)cc1 (configuration not stated) | 94 % of control |
| Cc1ccc(C)n1CCn1c(C)ccc1C | 96 % of control |
| CSc1ccccc1NC(=O)c1ccccc1 | 96 % of control |
| O=C(NCc1cccc2ccccc12)Nc1ccccc1Cl | 96 % of control |
| CCCCCCCCCCCCCCCCCC(=O)OCC(COC(=O)CCCCCCCC(CO)CCCCCCCCC)OC(=O)CCCCCCCC(CO)CCCCCCCCC (configuration not stated) | 101 % of control |
| CCCCCCCCC1NC1CCCCCCCCO (configuration not stated) | 100 % of control |
| CCn1cc(C(=O)O)c(=O)c2ccc3ccccc3c21 | 100 % of control |
| CC(=O)c1cccc(F)n1 | 100 % of control |
| C=C(CSCC(N)=O)c1ccccc1 | 94 % of control |
| COc1ccc(/C=N/NC(=O)c2ccc(N)cc2)cc1 | 95 % of control |
| COCn1c(C(=O)c2ccc(OC)cc2)cc2ccccc21 | 98 % of control |
| O=C1C=C(C23CC4CC(CC(C4)C2)C3)N2CCCc3cccc(c32)N1 | 97 % of control |
| O=C1c2ccccc2C(=O)N1c1ccccc1O | 106 % of control |
| COc1ccc(C2Nc3ccccc3NC3CC(C)(C)CC(=O)C32)cc1 (configuration not stated) | 109 % of control |

====

In this section, each of the compounds is paired with its reported T/C.
# System: L1210 leukemia ip in BDF1 mice, survival T/C
# measurement.notes: NCI In Vivo Anticancer Drug Screen. Data for tumor model L1210 Leukemia (intraperitoneal) in B6D2F1 (BDF1) mice
# measurement.setup: endpoint: mean survival time; dose: 400.0 mg/kg/injection; schedule: Q01DX001 (ip); vehicle: saline; higher = longer survival
Toxic doses and inconclusive results are not listed. Peptide text beside a SMILES is read from it. * marks the point of attachment. Cbz = O=C(OCc1ccccc1)*
measurement.kind: T/C

| compound | experimental.target | recorded.measurement |
| --- | --- | --- |
| Cn1c(=O)c2c(nc(CCCC3CCCCC3)n2C)n(C)c1=O | L1210 leukemia ip in BDF1 mice, survival T/C | 103 % of control |
| COc1ccc(C(=S)N2CCN(c3ccc(C)cc3)CC2)cc1 | L1210 leukemia ip in BDF1 mice, survival T/C | 95 % of control |
| CN(C)N=Nc1ccc(C(=O)NC(CCC(=O)NN)C(=O)NN)cc1 (centres undefined) | L1210 leukemia ip in BDF1 mice, survival T/C | 94 % of control |
| O=C(N/N=C/C=C/c1ccccc1)[C@H](O)[C@@H](O)C(=O)N/N=C/C=C/c1ccccc1 | L1210 leukemia ip in BDF1 mice, survival T/C | 93 % of control |
| CC(=O)Nc1ccc(C(=O)N=C(C2CCCC2)N2CCCC2)cc1 | L1210 leukemia ip in BDF1 mice, survival T/C | 105 % of control |
| COC(=O)C(CC(C)C)NC(=O)C(CC(N)=O)NC(=O)OCc1ccccc1 (stereo not drawn) (Cbz-Asn-Leu-OMe; configuration not given here) | L1210 leukemia ip in BDF1 mice, survival T/C | 98 % of control |
| NC1CC2(CCC1=O)c1ccccc1-c1ccccc12 (centres undefined) | L1210 leukemia ip in BDF1 mice, survival T/C | 104 % of control |
| O=S1(=O)CCCCC1c1ccccc1 (centres undefined) | L1210 leukemia ip in BDF1 mice, survival T/C | 93 % of control |
| CC1(C)CCC2CC(=O)OC2(C)C1 (centres undefined) | L1210 leukemia ip in BDF1 mice, survival T/C | 92 % of control |
| COc1[nH]c(=O)ncc1Br | L1210 leukemia ip in BDF1 mice, survival T/C | 103 % of control |
| Cc1nn2cnnc2s1 | L1210 leukemia ip in BDF1 mice, survival T/C | 101 % of control |
| Oc1cccc(-c2nnc(-c3cccc(O)c3)nn2)c1 | L1210 leukemia ip in BDF1 mice, survival T/C | 102 % of control |
| OCC1OC(n2c(Cl)nc3ccccc32)C(O)C1O (centres undefined) | L1210 leukemia ip in BDF1 mice, survival T/C | 103 % of control |
| O=C1OC(=O)C2C1C=C(c1ccccc1)C1C3C=CC(C4C(=O)OC(=O)C34)C21 (centres undefined) | L1210 leukemia ip in BDF1 mice, survival T/C | 106 % of control |
| O=c1[nH]nc(-c2ccccc2)c2ccccc12 | L1210 leukemia ip in BDF1 mice, survival T/C | 100 % of control |
| O=C(C=C(C(F)(F)F)C(F)(F)F)c1ccccc1 | L1210 leukemia ip in BDF1 mice, survival T/C | 109 % of control |
| CCCC(=O)OCC(=O)c1ccc(-c2ccccc2)cc1 | L1210 leukemia ip in BDF1 mice, survival T/C | 94 % of control |
| Cn1[nH]cc(/C=N/C(N)=O)c1=O | L1210 leukemia ip in BDF1 mice, survival T/C | 87 % of control |
| CCCCC(=O)N/N=C/c1ccc(O)cc1O | L1210 leukemia ip in BDF1 mice, survival T/C | 94 % of control |
| C=CCOCC(O)COP(=O)(O)O (centres undefined) | L1210 leukemia ip in BDF1 mice, survival T/C | 109 % of control |
| Cc1ccc(C(=O)OCC2OC(n3cnc4c(=S)nc(N)[nH]c43)C(OC(=O)c3ccc(C)cc3)C2OC(=O)c2ccc(C)cc2)cc1 (centres undefined) | L1210 leukemia ip in BDF1 mice, survival T/C | 106 % of control |
| CCCCC(=O)N/N=C/c1ccc(N(C)C)cc1 | L1210 leukemia ip in BDF1 mice, survival T/C | 95 % of control |
| CCCn1c(N)cc(=O)[nH]c1=S | L1210 leukemia ip in BDF1 mice, survival T/C | 100 % of control |
| O=C1C(O)=C(O)C(=O)C(O)=C1O | L1210 leukemia ip in BDF1 mice, survival T/C | 105 % of control |
| Cc1cc(C)c(C(=O)CBr)c(C)c1 | L1210 leukemia ip in BDF1 mice, survival T/C | 110 % of control |
| CCCn1c(C)nc2c1C(=O)c1ccccc1C2=O | L1210 leukemia ip in BDF1 mice, survival T/C | 103 % of control |
| OC[C@@H]1CC[C@H](n2cnc3c(Cl)ncnc32)C1 | L1210 leukemia ip in BDF1 mice, survival T/C | 101 % of control |
| O=C(CCCC(=O)N/N=C/c1c[nH]c2ccc(Br)cc12)N/N=C\c1c[nH]c2ccc(Br)cc12 | L1210 leukemia ip in BDF1 mice, survival T/C | 96 % of control |
| O=CC(S)CO (centres undefined) | L1210 leukemia ip in BDF1 mice, survival T/C | 97 % of control |
| O=C(O)C1c2ccccc2-c2ccccc21 | L1210 leukemia ip in BDF1 mice, survival T/C | 101 % of control |
| Cc1cc2nc3[nH]c4ccccc4c3nc2cc1C | L1210 leukemia ip in BDF1 mice, survival T/C | 97 % of control |
| CC(C)=CCC(C)c1ccncc1 (centres undefined) | L1210 leukemia ip in BDF1 mice, survival T/C | 102 % of control |
| Cc1cn(C2CCCO2)c(=O)nc1N (centres undefined) | L1210 leukemia ip in BDF1 mice, survival T/C | 101 % of control |
| Nc1ccc(OCCCc2c(-c3ccccc3)nc(N)[nH]c2=O)cc1 | L1210 leukemia ip in BDF1 mice, survival T/C | 102 % of control |
| NC(Cc1ccc(O)c(O)c1)C(=O)O (centres undefined) | L1210 leukemia ip in BDF1 mice, survival T/C | 97 % of control |
| COCc1c(C)cc(C)cc1C | L1210 leukemia ip in BDF1 mice, survival T/C | 113 % of control |
| NC(=O)C1C(=O)OC2CCCCC21 (centres undefined) | L1210 leukemia ip in BDF1 mice, survival T/C | 97 % of control |
| NC(=O)NOCc1cscn1 | L1210 leukemia ip in BDF1 mice, survival T/C | 97 % of control |
| O=C(/C=C\c1ccc([N+](=O)[O-])cc1)OCCCCOC(=O)/C=C/c1ccc([N+](=O)[O-])cc1 | L1210 leukemia ip in BDF1 mice, survival T/C | 87 % of control |
